Test system: Calf thymus DNA
Assay: Inhibition of ethidium bromide binding to calf thymus DNA by fluorescence spectra analysis
Type: nucleic-acid assay
Settings: Bos taurus
measured_property: KSV (×10³ /M)

The examples below pair each entry with its known result.
1. O=C1NC(=O)/C(=C/c2c[nH]c3ccccc23)S1    1.59
2. O=C1NC(=O)/C(=C/c2c[nH]c3ccc(Br)cc23)S1    3.86
3. O=C1NC(=S)N/C1=C\c1c[nH]c2ccccc12    1.36
4. O=C1NC(=S)S/C1=C\c1c[nH]c2ccc(Br)cc12    6.31

a. NN1C(=O)/C(=C/c2c[nH]c3ccc(Br)cc23)SC1=S
b. O=C1NC(=S)S/C1=C\c1c[nH]c2ccccc12
stdin: I'm curious whether a or b has the smaller KSV number. Which is it? # answer = label of selected item
stdout: b
